Data provenance is PubChem BioAssay (NCI).

System: M14 melanoma
Assay Method Text: NCI tumour cell line growth inhibition, 48 h
Parameter Measured: TGI

Compound	Result
CN1[C@@H]2C[C@@H](OC(=O)[C@H](CO)c3ccccc3)C[C@H]1[C@@H]1O[C@@H]12	> 100 µM
OCc1ccc(C2CC(c3ccco3)=NN2c2ccccc2)o1 (stereo unspecified)	> 100 µM
CCn1c(-c2ccc(OC(C)=O)cc2)c(C)c2cc(OC(C)=O)ccc21	38.9 µM
N#Cc1cccnc1Cl	> 100 µM
O=C1NC(=O)C(CC2CCCCCCCCCCC2=O)C(=O)N1 (stereo unspecified)	> 100 µM
O=c1c2cc(Br)cc(Br)c2nc(CCCl)n1CCO	> 100 µM
O=C1Nc2ccc(F)cc2/C1=C/c1ccc[nH]1	> 25 µM
CCn1c(SCc2ccc(C)cc2)nnc1-c1nn(-c2ccc(Cl)cc2Cl)c(-c2ccc(Cl)cc2)c1C	10.8 µM
CC(=O)[C@@]1(O)CC[C@H]2[C@@H]3C[C@H](C)C4=CC(=O)C=C[C@]4(C)[C@@]3(F)[C@@H](O)C[C@@]21C	> 100 µM
CC1=CC(C/C(C)=C/COc2ccc3ccc(=O)oc3c2)OC1=O (stereo unspecified)	> 100 µM
Br[C](Br)(Br)[Hg][c]1ccccc1	12.2 µM
CN(C)c1cc[c]([Sn]([c]2ccc(N(C)C)cc2)([c]2ccc(N(C)C)cc2)[c]2ccc(N(C)C)cc2)cc1	21.6 µM
CC1=C(C(=O)Nc2ccc(F)c(Cl)c2)C(c2cccc(O)c2)NC(=O)N1 (stereo unspecified)	> 100 µM
CC(C)NC(=O)OCCN=c1c2ccccc2ccc2ccccc12	> 100 µM
COc1c(CCl)cc(-c2cc(=O)c3ccccc3s2)cc1CCl	> 100 µM
C=CCc1ccc(Oc2cc(CC=C)c3c(c2O)O[C@@H](CO)[C@H]3c2ccc(O)c(-c3cc(CC=C)ccc3O)c2)cc1	> 100 µM
O=C1OC2CCCC[C@@H]2C2C[C@]34CCCCC3[C@@H](C(=O)O4)C12 (stereo partly specified)	> 100 µM
O=S(=O)(Nc1cc(Sc2cccc3cccnc23)c(O)c2ccccc12)c1ccccc1	9.2 µM
COc1cc(/C=C(\C#N)c2ccccc2)cc(OC)c1	> 100 µM
COC1C=COC2(C)Oc3c(C)c(O)c4c(O)c(c(C5SCCS5)c(O)c4c3C2=O)NC(=O)C(C)=C/C=C\C(C)C2OC(C)(C)OC(C2C)C(C)C(OC(C)=O)C1C (stereo unspecified)	> 100 µM
COc1ccc(N2C(=O)CSC2c2c[nH]c3ccccc23)cc1 (stereo unspecified)	> 100 µM

* * *

System: HCC-2998 colon
Assay Method Text: NCI tumour cell line growth inhibition, 48 h

Compound	TGI
COc1ccc(CCN2COc3c([C@@H](C)CCC=C(C)C)ccc(C)c3C2)cc1OC	2.96 µM
CC(=O)OCC1OC(n2c3c(cc(C#N)c2=S)CCCCC3)C(OC(C)=O)C(OC(C)=O)C1OC(C)=O (stereo not given)	> 100 µM
CSc1cnc2ccccc2c1SC1CN(Cc2ccccc2)c2ccccc2C1=O (stereo not given)	> 100 µM
C=C1CCC(CC[C@@H]2CC[C@]3(OC2)O[C@@]2(O)CC[C@]3(C)OC2(C)C)C(C)(C)[C@H]1C/C=C1/C(=O)OC[C@@H]1O (stereo not given in full)	10.2 µM
COc1cc(/C=C/c2cc(/C=C/c3ccc(O)c(OC)c3)n(C(=O)Nc3ccc(C)cc3C)n2)ccc1O	4.26 µM
CCOC(=O)NC(=O)c1cn(CCCOC(=O)CCCCCCCCCCC(=O)OCCCn2cc(C(=O)NC(=O)OCC)c(=O)[nH]c2=O)c(=O)[nH]c1=O	> 100 µM
CC1=C(C(=O)Nc2ccc(F)c(Cl)c2)C(c2cccc(O)c2)NC(=O)N1 (stereo not given)	> 100 µM
O=C1NC(=O)C(CC2CCCCCCCCCCC2=O)C(=O)N1 (stereo not given)	> 100 µM
CSc1sc2ccccc2[s+]1	> 100 µM
CCOc1cc(C(C)(C)C)ccc1C1=N[C@@](C)(c2ccc(Cl)cc2)[C@@](C)(c2ccc(Cl)cc2)N1C(=O)N1CCN(CCCS(C)(=O)=O)CC1	6.95 µM
COc1nc2nccnc2c(=O)n1C	> 10 µM
Cn1c2ccccc2c(=O)c2cccc(C(=O)NC(CCCN=C(N)N)C(=O)O)c21 (stereo not given)	> 100 µM
Cc1cc(S(=O)(=O)Nc2nc3cc(-c4ccc(Cl)cc4)sc3c(=O)n2N)c(S)cc1Cl	> 100 µM
COC1C=COC2(C)Oc3c(C)c(O)c4c(O)c(c(C5SCCS5)c(O)c4c3C2=O)NC(=O)C(C)=C/C=C\C(C)C2OC(C)(C)OC(C2C)C(C)C(OC(C)=O)C1C (stereo not given)	20.2 µM
On1c(-c2ccccc2)nc2ccccc2c1=S	> 100 µM
C/C(CC(=O)NCCc1ccccc1)=N\NC(=O)C[n+]1ccccc1	> 100 µM
ClCc1cccc(Cn2cnc3nc(Cl)nc(Cl)c32)c1	2.9 µM
CCn1c(SCc2ccc(C)cc2)nnc1-c1nn(-c2ccc(Cl)cc2Cl)c(-c2ccc(Cl)cc2)c1C	13.2 µM
CN1C2CCC1CC(C)(O)C2 (stereo not given)	> 100 µM
N#Cc1cccnc1Cl	> 100 µM
